Test system: Salmonella typhimurium
Assay: Antimicrobial activity against Salmonella Typhimurium ATCC 14028 assessed as inhibition of biofilm formation after 24 hrs by spectrophotometry
Format: functional, organism-based, Salmonella enterica subsp. enterica serovar Typhimurium
Conditions: Salmonella enterica, ATCC 14028, 24 h
// values below are reported log10 of IC50
Measure: log10 of IC50 (log10 of the value in µM)

- Test Smiles: "c1ccc(-c2cnc(NC3CCCC3)[nH]2)cc1"
  log10 of IC50: 1.72
- Test Smiles: "CCCCCCCCN1c2nccc[n+]2C[C@@]1(O)c1ccc([N+](=O)[O-])cc1"
  log10 of IC50: 0.82
- Test Smiles: "CCCCCCCCN1c2nccc[n+]2C[C@@]1(O)c1ccc(OC)cc1"
  log10 of IC50: 1.02
- Test Smiles: "CCCNc1ncc(-c2ccc(Cl)c(Cl)c2)[nH]1"
  log10 of IC50: 1.04
- Test Smiles: "CCCCN1c2nccc[n+]2C[C@@]1(O)c1ccccc1"
  log10 of IC50: 2.61
- Test Smiles: "O=[N+]([O-])c1ccc(-c2cnc(NC3CCCCC3)[nH]2)cc1"
  log10 of IC50: 1.56
- Test Smiles: "CCCCCCCCCCN1c2nccc[n+]2C[C@@]1(O)c1ccc(F)cc1"
  log10 of IC50: 1.30
- Test Smiles: "CCCCCCCCN1c2nccc[n+]2C[C@@]1(O)c1cccc2ccccc12"
  log10 of IC50: 1.17
- Test Smiles: "CCCCCCCCCCN1c2nccc[n+]2C[C@@]1(O)c1ccc(OC)cc1"
  log10 of IC50: 1.27
- Test Smiles: "O[C@@]1(c2ccccc2)C[n+]2cccnc2N1C1CCC1"
  log10 of IC50: 2.69
- Test Smiles: "CCCCCNc1ncc(-c2ccc(Cl)c(Cl)c2)[nH]1"
  log10 of IC50: 0.34
- Test Smiles: "CCCCCCCCNc1ncc(-c2ccc(S(C)(=O)=O)cc2)[nH]1"
  log10 of IC50: 1.62
- Test Smiles: "O[C@@]1(c2ccc(Cl)cc2)C[n+]2cccnc2N1C1CCC1"
  log10 of IC50: 2.08
- Test Smiles: "O[C@@]1(c2ccc(Cl)cc2)C[n+]2cccnc2N1C1CCCCC1"
  log10 of IC50: 1.52
- Test Smiles: "CCCCCCN1c2nccc[n+]2C[C@@]1(O)c1ccccc1"
  log10 of IC50: 2.01
- Test Smiles: "CCCCCCN1c2nccc[n+]2C[C@@]1(O)c1ccc([N+](=O)[O-])cc1"
  log10 of IC50: 1.74
- Test Smiles: "CCCCCCCCN1c2nccc[n+]2C[C@@]1(O)c1ccc(F)cc1"
  log10 of IC50: 0.88
- Test Smiles: "CCCCN1c2nccc[n+]2C[C@@]1(O)c1ccc(Cl)cc1"
  log10 of IC50: 1.47
- Test Smiles: "O=[N+]([O-])c1cccc(-c2cnc(NC3CCCCC3)[nH]2)c1"
  log10 of IC50: 2.80
- Test Smiles: "O=[N+]([O-])c1ccc([C@]2(O)C[n+]3cccnc3N2C2CC2)cc1"
  log10 of IC50: 2.10
- Test Smiles: "CSc1ccc(-c2cnc(NC3CCCCC3)[nH]2)cc1"
  log10 of IC50: 2.28
- Test Smiles: "CCCCCCCCCCN1c2nccc[n+]2C[C@@]1(O)c1ccc([N+](=O)[O-])cc1"
  log10 of IC50: 1.00
